Assay: Pharmacokinetic evaluation of plasma levels of theophylline after oral dosing
Format: in vivo, A/J mice
Conditions: A/J, mouse, plasma; oral dose 3 mg/kg, 240 minutes post dosing, mean ± SD
Property name: concentration at 240 min (ng/mL)
Report the value in ng/mL with no unit label.

State its concentration at 240 min for this compound: "Cn1c(=O)c2[nH]cnc2n(C)c1=O"
90

* * *

Test: Pharmacokinetic evaluation of plasma levels of theophylline after oral dosing
Type: in vivo, A/J mice
Conditions: A/J, mouse, plasma; oral dose 3 mg/kg, 60 minutes post dosing, mean ± SD
Property name: concentration at 60 min (ng/mL)
The figure you give is taken to be in ng/mL; do not add the unit.

Respond only with concentration at 60 min recorded for "Cn1c(=O)c2[nH]cnc2n(C)c1=O"
1470

* * *

Test: Pharmacokinetic evaluation of plasma levels of theophylline after oral dosing
Type: in vivo, A/J mice
Details: A/J, mouse, plasma; oral dose 0.3 mg/kg, 240 minutes post dosing, mean ± SD
Protocol: The collected blood was mixed and decanted into eppendorf tubes before centrifugation in a microftige. Plasma was collected and stored at −80° C. prior to analysis by an HPLC/MS/MS method. The equipment used in the measurement of plasma levels were a Micromann Quatro Micro Mass Spectrometer (Micromass UK Limited) and a Waters 2795 Alliance HT liquid chromatograph (Waters USA). […]
Property name: concentration at 240 min (ng/mL)
Note: unit ng/mL is implicit; provide only the numeric part.

Using the record for Cn1c(=O)c2[nH]cnc2n(C)c1=O [Theophylline] , state its measured concentration at 240 min.
65

* * *

Test: Pharmacokinetic evaluation of plasma levels of theophylline after oral dosing
Assay type: in vivo, A/J mice
Details: A/J, mouse, plasma; oral dose 1 mg/kg, 30 minutes post dosing, mean ± SD
Property name: concentration at 30 min (ng/mL)
Write down the numeric answer in ng/mL and omit the unit.

Report measured concentration at 30 min; entry is "Cn1c(=O)c2[nH]cnc2n(C)c1=O"
660

* * *

Assay: Pharmacokinetic evaluation of plasma levels of theophylline after oral dosing
Format: in vivo, A/J mice
Details: A/J, mouse, plasma; oral dose 0.3 mg/kg, 60 minutes post dosing, mean ± SD
Property name: concentration at 60 min (ng/mL)
Form entry: value (ng/mL) — number only.

Supply measured concentration at 60 min of "Cn1c(=O)c2[nH]cnc2n(C)c1=O" in your reply.
256

* * *

Test: Pharmacokinetic evaluation of plasma levels of theophylline after oral dosing
Format: in vivo, A/J mice
Conditions: A/J, mouse, plasma; oral dose 3 mg/kg, 15 minutes post dosing, mean ± SD
Property name: concentration at 15 min (ng/mL)
Note: unit ng/mL is implicit; provide only the numeric part.

In one line, give reported concentration at 15 min of the entry "Cn1c(=O)c2[nH]cnc2n(C)c1=O" .
1860

From: patent US20080318912A1
